experimentalReadout: melting point

Below: 5 compounds and their reported melting point.
[
  {
    "compound": "Clc1ccc2c(c1)C(c1ccccc1)Nc1nccn1-2 (stereo unspecified)",
    "reportedValue": "239 to 241 °C"
  },
  {
    "compound": "COC(=O)c1cccc(Oc2ccnc(Cl)c2)n1",
    "reportedValue": "89 °C"
  },
  {
    "compound": "CN(C)c1ncnc2c(O)cccc12",
    "reportedValue": "104 to 105 °C"
  },
  {
    "compound": "CCCCC1=NC2(CCCC2)C(=O)N1Cc1ccc(-c2ccccc2S(=O)(=O)Nc2onc(C)c2C)c(CN2CCC(C)(C)C2=O)c1",
    "reportedValue": "104 to 110 °C"
  },
  {
    "compound": "CCCc1nccn1N=Cc1ccccc1",
    "reportedValue": "61 to 62 °C"
  }
]

Input line: Name the recorded melting point of the compound listed here: N#Cc1ccc(Oc2ccc(N)c(CN)c2)cc1
Output line: 80 to 82 °C

Input line: Name the recorded melting point of the compound listed here: CCCCc1cc2c(Nc3ccc4[nH]ccc4c3)c(C#N)cnc2s1
Output line: 210 °C

Input line: Name the recorded melting point of the compound listed here: CC(C)(C)[Si](Oc1ccc(Br)cc1)(c1ccccc1)c1ccccc1
Output line: 56 °C

Input line: Name the recorded melting point of the compound listed here: O=Cc1ccc(Sc2nc3cc(Cl)c(Cl)cc3[nH]2)o1
Output line: 170 °C

Input line: Name the recorded melting point of the compound listed here: CCc1[nH]c2cc(F)ccc2c1C1=CCNCC1
Output line: 194 to 196 °C

Input line: Name the recorded melting point of the compound listed here: CS(=O)(=O)c1ccc(C2=C(I)C(=O)C3(CCOCC3)O2)cc1
Output line: 210 to 213 °C

* * *

experimentalReadout: melting point

Input line: Name the recorded melting point of the compound listed here: CC(=O)c1cccc(NC(=O)NCCN(CCNC(=O)Nc2cccc(C(C)=O)c2)CCNC(=O)Nc2cccc(C(C)=O)c2)c1
Output line: 193 °C

Input line: Name the recorded melting point of the compound listed here: Cc1nn(Cc2ccc(OCc3nc(-c4ccccc4)oc3C)cc2)c(C)c1CCC(=O)O
Output line: 170 to 171 °C

Input line: Name the recorded melting point of the compound listed here: CCCCNC1=CC(=O)c2c(OC)ccc(OC)c2C1=O
Output line: 104 to 105 °C

Input line: Name the recorded melting point of the compound listed here: Nc1ccc(CCNC(=O)Nc2ccc(Nc3ccccc3)cc2)cc1
Output line: > 260 °C

* * *

Measured melting point values are reported for all entries that follow.

Below: 4 compounds and their reported melting point.
[
  {
    "compound": "CC(C)OC(=O)c1ccc(Nc2cccc(N3CCCCC3)c2)c([N+](=O)[O-])c1",
    "melting point": "160 to 161 °C"
  },
  {
    "compound": "O=C(CCc1cccnc1)NCCCCC1CCN(C2c3ccccc3COc3ccccc32)CC1 (stereo unspecified)",
    "melting point": "110 to 112 °C"
  },
  {
    "compound": "N#CCCNC(=O)c1cccc(-c2ccc3c(c2)C(NCc2ccc(Cl)cc2Cl)CC3)c1 (stereo unspecified)",
    "melting point": "126 to 130 °C"
  },
  {
    "compound": "O=C1COC(C#CC2CC2)(C(F)(F)F)c2cc(Cl)ccc2N1 (stereo unspecified)",
    "melting point": "200 °C"
  }
]

Input line: Name the recorded melting point of the compound listed here: CC1=C(C)C(F)N(c2ccc(Cl)c(Cl)c2)C1=O (stereo unspecified)
Output line: 102 to 103 °C

Input line: Name the recorded melting point of the compound listed here: CCCCCCC(=O)c1ccc2c([N+](=O)[O-])c(O)c(O)cc2c1
Output line: 97 to 98 °C

* * *

experimentalReadout: melting point

Below: 2 compounds and their reported melting point.
[
  {
    "compound": "CCCSc1sc(C(N)=O)c2c1-c1c(cnn1C)CC2",
    "melting point": "112 to 113 °C"
  },
  {
    "compound": "Cc1ccc2c(c1)Oc1sc(C)cc1C(N1CCN(C)CC1)=N2",
    "melting point": "149 to 150 °C"
  }
]

Input line: Name the recorded melting point of the compound listed here: O=C(c1ccccc1)c1ccc2nc(C(F)(F)F)c(Br)nc2c1
Output line: 152 to 154 °C

Input line: Name the recorded melting point of the compound listed here: CCOC(=O)COc1ccc(C(=O)[C@H](Cc2ccc(OC)cc2)NC(=O)OC(C)(C)C)cc1
Output line: 95 to 97 °C

Input line: Name the recorded melting point of the compound listed here: CC(C)(C)OC(=O)N1CC2CC1C(=O)S2 (stereo unspecified)
Output line: 91 °C

Input line: Name the recorded melting point of the compound listed here: O=C(O)Cn1c(Cc2ccccc2)ccc1-c1ccccc1
Output line: 137 to 139 °C

Input line: Name the recorded melting point of the compound listed here: COCc1ccc2cccnc2c1Cl
Output line: 78 to 79 °C

Input line: Name the recorded melting point of the compound listed here: c1cc2c3c(cccc3c1)NCN2
Output line: 89 to 93 °C

Input line: Name the recorded melting point of the compound listed here: N#CNC(=NC1CCN(Cc2ccccc2)CC1)N1Cc2ccccc2C1
Output line: 191 to 192 °C

Input line: Name the recorded melting point of the compound listed here: O=C1c2ccccc2C(=O)N1OS(=O)(=O)c1ccc(Cl)cc1
Output line: 178 to 180 °C

Input line: Name the recorded melting point of the compound listed here: O=C(NC1CN2CCC1CC2)c1cc(Cl)cc2oc(-c3ccccc3)nc12 (stereo unspecified)
Output line: 180 to 183 °C

* * *

experimentalReadout: melting point

Below: 8 compounds and their reported melting point.
[
  {
    "compound": "CC(=O)NC[C@H]1CN(c2ccc(N3CCC4(CC3)CC4(C#N)C#N)cc2)C(=O)O1",
    "melting point": "172 to 174 °C"
  },
  {
    "compound": "CCN(CC)CCOC1CCC2C3CCc4cc(OC)ccc4C3CCC12CC (centres undefined)",
    "melting point": "66 to 67 °C"
  },
  {
    "compound": "O=C(O)CCc1ccc(-c2cccc(-c3ccnc4c(C(=O)c5cccs5)cnn34)c2)cc1",
    "melting point": "117 to 119 °C"
  },
  {
    "compound": "CCCCCCCCS(=O)(=O)c1ccc(CC(N)(CO)CO)cc1",
    "melting point": "108 to 109 °C"
  },
  {
    "compound": "CC1=C(c2ccccc2)C(=O)N(C(C)(C)C(O)C(C)C)CO1 (centres undefined)",
    "melting point": "42 to 54 °C"
  },
  {
    "compound": "CC(=O)OC1CCCc2cnc3ccc(OCc4ccccc4[N+](=O)[O-])cc3c21 (centres undefined)",
    "melting point": "125 to 127 °C"
  },
  {
    "compound": "Clc1ccc(C(c2ccccc2)N2CCN(c3nc4cccc5c4n3CCC5)CC2)cc1 (centres undefined)",
    "melting point": "167 to 169 °C"
  },
  {
    "compound": "COc1cc(CNc2nc(N)n3nc(-c4ccco4)nc3n2)cc(OC)c1OC",
    "melting point": "221 to 224 °C"
  }
]

Input line: Name the recorded melting point of the compound listed here: CC(C)(C)OC(=O)N[C@@]1(C(=O)OC(C)(C)C)C[C@@H](F)[C@H]2[C@H](C(=O)OC(C)(C)C)[C@H]21
Output line: 140 to 143 °C

* * *

experimentalReadout: melting point

Below: 4 molecules and their reported melting point.
[
  {
    "molecule": "CC(C)CCC1(CCC(C)C)c2cc(Cl)ccc2-c2ccc(Cl)cc21",
    "melting point": "116 to 118 °C"
  },
  {
    "molecule": "CCOC(=O)C(=O)CC(=O)CC(=O)c1ccc(Cl)cc1",
    "melting point": "93 to 94 °C"
  },
  {
    "molecule": "Cc1c(NC(=O)c2ccc(OC[C@@H]3CCCO3)cc2)ccc2cc(CNCCOC(C)C)cnc12",
    "melting point": "111 to 113 °C"
  },
  {
    "molecule": "COC(=O)c1cc(OC)c(O)cc1-c1c(C(=O)OC)ccc2c1OCO2",
    "melting point": "172 to 173 °C"
  }
]

Consider the additional molecule presented here.
Input line: Name the recorded melting point of the molecule listed here: CC1CCCC(C)N1S(=O)(=O)N[C@@H](Cc1ccc(NC(=O)c2c(Cl)cncc2Cl)cc1)C(=O)O (stereo not given in full)
Output line: 162 °C

* * *

Measured melting point values are reported for all entries that follow.

Below: 4 compounds and their reported melting point.
[
  {
    "compound": "CCc1ccc(CC(C)(C)NCC(O)c2cc(OCc3ccccc3)cc3c2OCC(=O)N3)cc1 (stereo not given)",
    "experimentalReadout": "melting point",
    "reportedValue": "210 to 214 °C"
  },
  {
    "compound": "Cc1ccc(-n2nc(C(N)=O)nc2-c2ccccc2)cc1COCCC(C)C",
    "experimentalReadout": "melting point",
    "reportedValue": "83 to 85 °C"
  },
  {
    "compound": "COC(=O)CCc1cc2nc(Cl)ccc2n1S(=O)(=O)c1ccc2nc(N)sc2c1",
    "experimentalReadout": "melting point",
    "reportedValue": "205 to 215 °C"
  },
  {
    "compound": "Cc1nc(N2C[C@@H](C)N(Cc3ccc(C(F)(F)F)cc3)C2=O)sc1C(N)=O",
    "experimentalReadout": "melting point",
    "reportedValue": "110 to 112 °C"
  }
]

Input line: Name the recorded melting point of the compound listed here: Cc1cc2c(cnn2-c2c(Cl)cc(C(F)(F)F)cc2Cl)nc1C
Output line: 135 to 136 °C
